Data credit: the supplement of paper PMC7125110

B1: glmS ribozyme (parent)
chain: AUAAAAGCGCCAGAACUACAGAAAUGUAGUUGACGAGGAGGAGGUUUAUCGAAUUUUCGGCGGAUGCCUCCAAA

# Variants of: B1
# Method summary: self-cleavage kobs at 2500 uM GlcN6P; higher = faster cleavage; RNA array
# Condition label: with glucosamine-6-phosphate
Fewer inactive variants are shown than the library holds.
Reported self-cleavage kobs at 2500 uM GlcN6P values for the following variants.
Write down the numeric answer in s⁻¹ and omit the unit.

Below, each entry is followed by its recorded self-cleavage kobs at 2500 uM GlcN6P result.
mutation_code="U49G U69A" experimental_value=8.22e-05
mutation_code="A39U G41U C71A" experimental_value=4.06e-05
mutation_code="A12C U47C" experimental_value=0.00187
mutation_code="U46G U47G" experimental_value=0.00191

Entry U47C G66A — recorded self-cleavage kobs at 2500 uM GlcN6P = 0.00159

According to the records, this variant A6U C16U C68U displays self-cleavage kobs at 2500 uM GlcN6P of 7.4e-05

self-cleavage kobs at 2500 uM GlcN6P recorded for this variant, A12G A15U C71G , is 2.52e-05

Record A12C C16A . Reported self-cleavage kobs at 2500 uM GlcN6P: 0.000339

According to the records, this variant U47G C71G displays self-cleavage kobs at 2500 uM GlcN6P of 0.000205

Entry C50G U54A — recorded self-cleavage kobs at 2500 uM GlcN6P = 5.55e-05

# self-cleavage kobs at 2500 uM GlcN6P (variant: A12U U55G ) is 0.00928

self-cleavage kobs at 2500 uM GlcN6P reported for this variant G40U U54G : 0.00192
